Where these numbers come from: the supplement of paper PMC10567573

B1: FAM9B (parent)
chain: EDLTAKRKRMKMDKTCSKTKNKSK

# Variants of: B1
# assay-remarks: protein stability index of a GFP-peptide fusion (GPS, HEK-293T) (PSI 1-6); higher = more stable;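 note: lentivirally expressed fusions sorted by FACS into six bins by GFP to DsRed ratio, PSI derived from sequencing read proportions per bin multiplied by bin number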
# test-parameters: c terminus: a fixed tail appended
quantity-kind: protein stability index

[[record]]
variant_label = "R9W"
recorded_result = 4.48

[[record]]
variant_label = "S17K"
recorded_result = 4.55

[[record]]
variant_label = "K18W"
recorded_result = 4.35

[[record]]
variant_label = "N21V"
recorded_result = 4.11

[[record]]
variant_label = "A5K"
recorded_result = 4.15

[[record]]
variant_label = "T15N"
recorded_result = 5.33

[[record]]
variant_label = "M12A"
recorded_result = 5.02

[[record]]
variant_label = "T19V"
recorded_result = 4.7

[[record]]
variant_label = "K6W"
recorded_result = 4.29

[[record]]
variant_label = "T15M"
recorded_result = 5.11

[[record]]
variant_label = "N21Y"
recorded_result = 4.77

[[record]]
variant_label = "S17N"
recorded_result = 5.85

[[record]]
variant_label = "N21A"
recorded_result = 5.23

[[record]]
variant_label = "L3W"
recorded_result = 4.6

[[record]]
variant_label = "K18D"
recorded_result = 5.07

[[record]]
variant_label = "K14R"
recorded_result = 5.37

[[record]]
variant_label = "S17A"
recorded_result = 4.7

[[record]]
variant_label = "T19I"
recorded_result = 4.9

[[record]]
variant_label = "N21M"
recorded_result = 4.81

[[record]]
variant_label = "R7D"
recorded_result = 5.41

[[record]]
variant_label = "E1S"
recorded_result = 5.16

